- Assay Summary: Drug excretion in rat cage at 10 mg/kg, po
- Format: ADME, organism-based
- Test Conditions: read-out: Drug excretion
Measured Parameter: dose excreted (%)
Number only, in %; omit the unit.

Qu. For the molecule shown here, [3H][C@@]1(O)[C@@H](C(F)F)O[C@@H]2SC(NCC)=N[C@@H]2[C@H]1O , give the reported dose excreted.
Ans. 3

====

- Assay Summary: Drug excretion in dog urine at 3 mg/kg, po
- Assay type: ADME, organism-based, Canis lupus familiaris
- Test Conditions: read-out: Drug excretion
Measured Parameter: dose excreted
Mention the unit after the number when you answer.

Qu. Can you share its dose excreted? I mean this molecule: [3H][C@@]1(O)[C@@H](C(F)F)O[C@@H]2SC(NCC)=N[C@@H]2[C@H]1O
Ans. 79%

====

- Assay Summary: AUCN in Wistar Han rat at 3 mg/kg, po
- Assay type: ADME, organism-based
- Test Conditions: in vivo
In this section we review reported AUC/dose values for a set of compounds.
Provide only the numeric value, understood in µM·kg·h/mg.

A selection of reference data follows.
Smiles Repr	Unit Spec	AUC/dose
CNC1=N[C@@H]2[C@@H](O)[C@H](O)[C@@H](C(F)F)O[C@@H]2S1	µM·kg·h/mg	2.54
OC[C@H]1O[C@@H]2SC(NCCF)=N[C@@H]2[C@@H](O)[C@@H]1O	µM·kg·h/mg	0.903
CNC1=N[C@@H]2[C@H](F)[C@H](O)[C@@H](C(F)F)O[C@@H]2S1	µM·kg·h/mg	4.27
CCNC1=N[C@@H]2[C@@H](O)[C@H](O)[C@@H](CF)O[C@@H]2S1	µM·kg·h/mg	1.77
CNC1=N[C@@H]2[C@H](F)[C@H](O)[C@@H](CF)O[C@@H]2S1	µM·kg·h/mg	2.96

Qu. Fill in: AUC/dose of CNC1=N[C@@H]2[C@@H](O)[C@H](O)[C@@H](CF)O[C@@H]2S1 is ___
Ans. 3.36

Qu. Need AUC/dose, item CCCNC1=N[C@@H]2[C@@H](F)[C@H](O)[C@@H](CO)O[C@@H]2S1
Ans. 0.394

Qu. Find the recorded AUC/dose belonging to CN(C)C1=N[C@@H]2[C@@H](O)[C@H](O)[C@@H](C(F)F)O[C@@H]2S1 and report it.
Ans. 0.43

Qu. Look at this compound and give its reported AUC/dose. C=CCN(C)C1=N[C@@H]2[C@@H](O)[C@H](O)[C@@H](CO)O[C@@H]2S1
Ans. 0.538

====

- Assay Summary: Drug uptake in rat brain at 3 mg/kg, po measured after 24 hrs
- Assay type: ADME, organism-based
- Test Conditions: in vivo
Measured Parameter: Drug uptake (nmol/g)
Write down the numeric answer in nmol/g and omit the unit.

Smiles Repr	Measured Parameter	Unit Spec	Reported Value
CCNC1=N[C@@H]2[C@@H](O)[C@H](O)[C@@H](C(F)F)O[C@@H]2S1	Drug uptake	nmol/g	0.088
CNC1=N[C@@H]2[C@H](F)[C@H](O)[C@@H](CO)O[C@@H]2S1	Drug uptake	nmol/g	0.074
CCNC1=N[C@@H]2[C@@H](O)[C@H](O)[C@@H](CF)O[C@@H]2S1	Drug uptake	nmol/g	0.047

Qu. Which Drug uptake is listed for CNC1=N[C@@H]2[C@@H](O)[C@H](O)[C@@H](CF)O[C@@H]2S1 ?
Ans. 0.025

Qu. Could you share which Drug uptake value was measured for CN(C)C1=N[C@@H]2[C@@H](O)[C@H](O)[C@@H](CF)O[C@@H]2S1 ?
Ans. 0.038

Qu. I am curious: what Drug uptake value has been reported for CCNC1=N[C@@H]2[C@@H](O)[C@H](O)[C@@H](CO)O[C@@H]2S1 ?
Ans. 0.051

Qu. Consider the molecule CN(C)C1=N[C@@H]2[C@@H](O)[C@H](O)[C@@H](C(F)F)O[C@@H]2S1 and give its measured Drug uptake.
Ans. 0.049

====

- Tgt: Protein O-GlcNAcase (Homo sapiens, UniProt O60502)
- Sequence (O60502 whole entry): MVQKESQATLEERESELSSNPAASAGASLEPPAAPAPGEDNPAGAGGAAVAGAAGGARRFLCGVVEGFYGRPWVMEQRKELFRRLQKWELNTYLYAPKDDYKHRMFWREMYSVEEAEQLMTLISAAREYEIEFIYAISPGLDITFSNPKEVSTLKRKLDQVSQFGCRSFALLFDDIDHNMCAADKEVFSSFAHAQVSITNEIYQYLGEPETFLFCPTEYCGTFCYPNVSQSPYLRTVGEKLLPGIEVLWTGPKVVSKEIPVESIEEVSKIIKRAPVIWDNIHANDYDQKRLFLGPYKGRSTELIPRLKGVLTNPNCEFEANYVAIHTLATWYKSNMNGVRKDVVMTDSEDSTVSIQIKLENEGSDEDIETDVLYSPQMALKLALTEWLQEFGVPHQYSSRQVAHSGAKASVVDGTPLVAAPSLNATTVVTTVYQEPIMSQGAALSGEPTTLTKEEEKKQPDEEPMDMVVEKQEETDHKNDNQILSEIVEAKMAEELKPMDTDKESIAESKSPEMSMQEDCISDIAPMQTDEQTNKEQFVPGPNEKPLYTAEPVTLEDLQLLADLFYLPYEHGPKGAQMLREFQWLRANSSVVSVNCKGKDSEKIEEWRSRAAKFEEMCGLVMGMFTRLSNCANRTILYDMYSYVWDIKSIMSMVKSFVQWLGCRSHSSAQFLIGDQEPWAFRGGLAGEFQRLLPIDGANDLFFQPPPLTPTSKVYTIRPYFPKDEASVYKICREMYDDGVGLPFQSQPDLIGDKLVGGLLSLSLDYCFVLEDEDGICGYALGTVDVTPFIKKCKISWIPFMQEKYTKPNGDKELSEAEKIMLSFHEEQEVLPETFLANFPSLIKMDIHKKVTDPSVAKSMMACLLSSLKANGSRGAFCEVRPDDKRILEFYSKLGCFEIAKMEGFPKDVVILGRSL
- Assay Summary: Inhibition of recombinant human OGA
Measured Parameter: log10 Ki (log10 of the value in nM)
Note the log scale: values are log10 of Ki expressed in nM.

Some solved cases for reference:
Smiles Repr	log10 Ki
CN(C)C1=N[C@@H]2[C@@H](F)[C@H](O)[C@@H](CO)O[C@@H]2S1	1.61
CCCNC1=N[C@@H]2[C@@H](F)[C@H](O)[C@@H](CO)O[C@@H]2S1	1.15
OC[C@H]1O[C@@H]2SC(NCCF)=N[C@@H]2[C@@H](O)[C@@H]1O	0.75
O[C@H]1[C@H](O)[C@@H](CF)O[C@@H]2SC(N3CCC3)=N[C@H]12	2.30
CNC1=N[C@@H]2[C@H](F)[C@H](O)[C@@H](C(F)F)O[C@@H]2S1	1.36
CNC1=N[C@@H]2[C@@H](F)[C@H](O)[C@@H](CO)O[C@@H]2S1	0.48

Qu. So what does the record say about log10 Ki for CCNC1=N[C@@H]2[C@@H](O)[C@H](O)[C@@H](C)O[C@@H]2S1 ?
Ans. 1.84

Qu. Any idea what its log10 Ki is? The molecule is C=CCNC1=N[C@@H]2[C@@H](O)[C@H](O)[C@@H](CF)O[C@@H]2S1
Ans. 2.26

Qu. Which log10 Ki reading was recorded for the molecule O[C@H]1[C@H](O)[C@@H](C(F)F)O[C@@H]2SC(N3CCC3)=N[C@H]12 ?
Ans. 1.41

Qu. Value lookup for log10 Ki; key = CCN(C)C1=N[C@@H]2[C@@H](O)[C@H](O)[C@@H](CO)O[C@@H]2S1
Ans. 0.74

Qu. Bench note: what log10 Ki did CNC1=N[C@@H]2[C@@H](O)[C@H](O)[C@@H](C(F)F)O[C@@H]2S1 show?
Ans. -0.44

====

Entries and their Papp
- Tested on: MDR1
- Assay Summary: Apparent permeability in pig LLC-PK1 cells transfected with MDR1
- Assay type: ADME, cell-based, Sus scrofa
Express it in ×10⁻⁶ cm/s; write the number only.

Some solved entries appear below for comparison.
Smiles Repr	Tgt	Measured Parameter	Reported Value
OC[C@H]1O[C@@H]2SC(NCCF)=N[C@@H]2[C@@H](O)[C@@H]1O	MDR1	Papp	2.2
CN(C)C1=N[C@@H]2[C@@H](O)[C@H](O)[C@@H](CF)O[C@@H]2S1	MDR1	Papp	6.8

As a next step, examine the compound that follows.
Qu. Fill in: Papp of C=CCN(C)C1=N[C@@H]2[C@@H](O)[C@H](O)[C@@H](CO)O[C@@H]2S1 is ___
Ans. 0.8

====

- Assay Summary: Oral bioavailability in Wistar Han rat at 3 mg/kg
- Format: ADME, organism-based
- Test Conditions: in vivo
Respond with class 1 for bioavailability values of 60% and above, class 0 for values below.

See these solved cases before continuing.
Smiles Repr	Assigned Category
CN(C)C1=N[C@@H]2C[C@H](O)[C@@H](CO)O[C@@H]2S1	class 1
CN(C)C1=N[C@@H]2[C@@H](O)[C@H](O)[C@@H](C(F)F)O[C@@H]2S1	class 0
CN(C)C1=N[C@@H]2[C@@H](O)[C@H](O)[C@@H](CF)O[C@@H]2S1	class 1

Qu. Is reported bioavailability greater than or equal to 60% here: CNC1=N[C@@H]2C[C@H](O)[C@@H](C(F)F)O[C@@H]2S1
Ans. class 1
